FYI, the data here is from patent US11873298B2.

Biological target: Ole1 (Saccharomyces cerevisiae)
Construct: expressed in transfected cells; host or cells: S. cerevisiae ole1Δ strain (W303 pdr1Δ pdr3Δ background), plasmid pRS316 with TDH3 promoter and CYC1 terminator
Sequence (P21147 whole entry): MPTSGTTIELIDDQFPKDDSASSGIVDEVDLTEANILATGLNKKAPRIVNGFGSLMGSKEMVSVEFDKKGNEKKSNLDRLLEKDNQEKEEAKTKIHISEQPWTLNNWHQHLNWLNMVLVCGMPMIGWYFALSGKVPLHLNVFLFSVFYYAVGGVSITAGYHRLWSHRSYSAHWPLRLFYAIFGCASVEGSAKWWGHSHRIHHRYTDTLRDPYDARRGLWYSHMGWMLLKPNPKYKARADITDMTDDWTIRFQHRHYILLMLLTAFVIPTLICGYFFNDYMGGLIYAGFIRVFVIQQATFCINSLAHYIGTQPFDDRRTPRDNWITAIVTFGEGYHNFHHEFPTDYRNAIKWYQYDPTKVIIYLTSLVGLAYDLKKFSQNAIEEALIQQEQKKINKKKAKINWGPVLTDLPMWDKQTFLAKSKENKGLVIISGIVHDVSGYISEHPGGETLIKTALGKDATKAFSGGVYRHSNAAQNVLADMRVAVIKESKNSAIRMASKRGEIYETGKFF
Assay: Growth inhibition of yeast strain expressing Ole1 as sole desaturase
Format: cell-based
Conditions: yeast strain expressing Ole1 as sole desaturase
Mark -1 for OLE1 % Max Inhibition values under 90%, and 1 for everything at or above.

Sample answers from the record:
# compound, group
data = [
    ("Cc1noc2cc(-c3noc(C4CCN(C(=O)CNC(=O)c5ccccc5)CC4)n3)ccc12", 1),
    ("Cc1nn(C)c2cc(-c3noc(C4CCN(C(=O)CNC(=O)c5ccsn5)CC4)n3)ccc12", -1),
    ("Cc1nn(C)c2cc(-c3noc(C4CCN(C(=O)[C@H]5CC(=O)N(c6ccccc6)C5)C(C)C4)n3)ccc12 (stereo partly drawn)", -1),
]

Ask | Is reported OLE1 % Max Inhibition greater than or equal to 90% here: Cn1c(=O)n(C)c2cc(-c3noc(C4CCN(C(=O)[C@@H](CO)NC(=O)c5ccccc5)CC4)n3)ccc21
Reply | -1

Ask | Determine whether measured OLE1 % Max Inhibition meets or exceeds 90% for CCN1CCOc2cc(-c3noc(C4CCN(C(=O)CNC(=O)c5ccccc5)CC4)n3)ccc21
Reply | 1

Ask | Check the entry Cc1c2ccc(-c3noc(C4CCN(C(=O)CNC(=O)c5ccccc5)CC4)n3)cc2nn1C(C)C : does OLE1 % Max Inhibition equal or exceed 90%?
Reply | -1

Ask | Evaluate Cc1nn(C)c2cc(-c3noc(C4CCN(C(=O)CNC(=O)c5cccc(C#N)c5)CC4)n3)ccc12 : OLE1 % Max Inhibition at minimum 90%?
Reply | -1

Ask | Check the entry CCn1nc(C)c2ccc(-c3noc(C4CCN(C(=O)OC(C)(C)C)CC4)n3)cc21 : does OLE1 % Max Inhibition equal or exceed 90%?
Reply | 1

Ask | Determine whether this compound has OLE1 % Max Inhibition no lower than 90%: Cc1nn(C)c2cc(-c3noc(C4CCN(C(=O)CNC(=O)c5ccc(C(F)(F)F)cc5)CC4)n3)ccc12
Reply | -1

Ask | Quick check, OLE1 % Max Inhibition >= 90%? Cc1ncc2ccc(-c3noc(C4CCN(C(=O)CNC(=O)c5ccccc5)CC4)n3)cn12
Reply | -1

###

Biological target: SCD5 (Homo sapiens, UniProt Q86SK9)
Construct: host or cells: S. cerevisiae ole1Δ strain (W303 pdr1Δ pdr3Δ background), plasmid pRS316 with TDH3 promoter and CYC1 terminator
Sequence (Q86SK9 whole entry): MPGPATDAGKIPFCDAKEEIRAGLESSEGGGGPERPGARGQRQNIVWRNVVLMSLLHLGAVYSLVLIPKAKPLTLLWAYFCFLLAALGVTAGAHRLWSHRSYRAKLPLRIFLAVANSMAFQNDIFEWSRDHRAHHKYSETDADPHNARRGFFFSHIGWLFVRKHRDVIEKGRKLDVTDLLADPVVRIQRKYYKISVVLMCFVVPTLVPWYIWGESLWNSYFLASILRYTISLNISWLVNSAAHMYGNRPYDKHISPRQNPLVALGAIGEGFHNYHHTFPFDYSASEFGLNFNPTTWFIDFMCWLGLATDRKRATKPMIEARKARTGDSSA
Test: Growth inhibition of humanized yeast strain expressing SCD5 as sole desaturase
Assay type: cell-based
Details: humanized yeast strain, 40 h
assay_readout: IC50 (nM)
Use nM as the unit, but write only the number.

Recorded results for 3 molecules are shown here.
# molecule, assay_readout, unit_abbrev, measured_number
measured = [
    ("CC(C)n1ncc2ccc(-c3nc(C4CCN(CC5CC5)C(=O)C4)no3)cc21 (stereo not shown) [Compound 1146]", "IC50", "nM", 380),
    ("CC(C)C(=O)N1CC[C@H](c2noc(-c3ccc4cnn(C5COC5)c4c3)n2)C[C@H]1C [Compound 1058]", "IC50", "nM", 3.67),
    ("COC(=O)N1CCC(c2noc(-c3ccc4oc(=O)n(C5COC5)c4c3)n2)CC1 [Compound 1031]", "IC50", "nM", 1130),
]

As a next step, examine the molecule that follows.
Ask | What does the record list as IC50 for CC1(OC(=O)N2CCC(c3noc(-c4ccnc(NC5COC5)c4)n3)CC2)CC1 [Compound 1151] ?
Reply | 1090
